# credit: patent US7749996B2

Field: IC50. Provide a value for each of the compounds that follow.
Target: catalytic domain of MMP-13 enzyme (Homo sapiens, UniProt P45452)
Construct: stock solution of catalytic domain of MMP-13 enzyme (produced by Alantos or commercially available from Invitek (Berlin), Cat.# 30100812); purchased Invitek (Berlin) 30100812
Test: Assay for determining MMP-13 inhibition (fluorescent substrate)
Assay type: biochemical
Details: Table 1, activity group

>>> reported_measurement("CC(NC(=O)C1CCc2sc3nc(C(=O)NCc4ccc5c(c4)NC(=O)CO5)[nH]c(=O)c3c21)c1ccccc1 (centres unmarked)")
"< 100 nM"

Provide the reported IC50 of each entry below, same order.
1. O=C1COc2ccc(CNC(=O)c3nc4sc5ccccc5c4c(=O)[nH]3)cc2N1
2. O=C(NCC1CC1)c1nc2sc3c(c2c(=O)[nH]1)CCC3
3. COC(=O)C1SCCN1C(=O)c1nc2sc3c(c2c(=O)[nH]1)CCC3 (centres unmarked)
4. NS(=O)(=O)c1ccc(CCNC(=O)c2nc3sc4c(c3c(=O)[nH]2)CCC4)cc1

Reply:
< 100 nM
100 to 20000 nM
100 to 20000 nM
100 to 20000 nM

Provide the reported IC50 of each entry below, same order.
1. O=C(NCc1ccc(CN2CCOCC2)cc1)c1nc2sc3c(c2c(=O)[nH]1)CCC3
2. O=C(O)CNC(=O)C1CCc2sc3nc(C(=O)NCc4ccc5c(c4)NC(=O)CO5)[nH]c(=O)c3c21 (centres unmarked)
3. Nc1c(N2CCc3ccc(CNC(=O)c4nc5sc6ccccc6c5c(=O)[nH]4)cc3C2)c(=O)c1=O

Reply:
1: 100 to 20000 nM; 2: < 100 nM; 3: < 100 nM
